The reported measurements were obtained from PubChem BioAssay (NCI).

Test system: 786-0 renal
Procedure details: NCI-60 one-dose screen, 48 h (100 = growth as untreated, 0 = no growth, -100 = all killed)
Condition label: 10 µM unless noted
About 83,000 compounds went through this panel and 20% of them were active in at least one assay; those are over-represented in the sample as a whole.
Lab note: compare growth with 90%, writing condition met if less and condition not met if equal or more.

[[record]]
compound = "COc1ccc2[nH]c(=O)c3c4ccccc4cn3c2c1"
cat = "condition met"

[[record]]
compound = "Cc1ccc2ccccc2c1C[n+]1ccccc1"
cat = "condition not met"

[[record]]
compound = "ClC(Cl)c1nc(-c2cccnc2)n2nc(-c3ccccc3)cc2n1"
cat = "condition met"

[[record]]
compound = "COc1ccc(-c2ccc(-c3ccc(C(=N)N)s3)s2)cc1Cl"
cat = "condition met"

[[record]]
compound = "CCC(C)/C(=C\\C#N)NCCCN/C(=C/C#N)C(C)CC (stereo not drawn)"
cat = "condition not met"

[[record]]
compound = "COC(=O)c1nc(-c2ccccc2)oc1S(=O)(=O)N1CCN(c2cccc(Cl)c2)CC1"
cat = "condition met"

[[record]]
compound = "O=C(NCCCNc1nccc(-n2ccc3cccnc32)n1)c1c(F)cccc1F"
cat = "condition not met"

[[record]]
compound = "C=C[C@@H]1C[C@@H]2Cc3cc(Cl)ccc3N1O2"
cat = "condition not met"

[[record]]
compound = "Cc1ccc(C(=O)NCCCNc2nccc(-n3ccc4cccnc43)n2)cc1"
cat = "condition not met"

[[record]]
compound = "CCN(CC)CCC(CNc1ccnc2cc(Cl)ccc12)c1ccccc1 (stereo not drawn)"
cat = "condition met"

[[record]]
compound = "Cc1ccc(S(=O)(=O)c2nc(-c3ccccc3)oc2S(C)(=O)=O)cc1"
cat = "condition met"

[[record]]
compound = "N[C@H]1CN(C(=O)c2cc3cc(Br)c(F)c(F)c3[nH]2)C[C@@H]1O"
cat = "condition met"

[[record]]
compound = "Cc1ccc(-c2cc3nc(-c4ccccc4)nc(C(Cl)Cl)n3n2)cc1"
cat = "condition met"

[[record]]
compound = "Nc1nc(Nc2cc(Cl)cc(Cl)c2)nn1S(=O)(=O)c1ccc2ccccc2c1"
cat = "condition met"

[[record]]
compound = "Nc1nc(=O)c2ccccc2s1"
cat = "condition not met"

[[record]]
compound = "COc1cccc(/C=C2\\Oc3cc(OCCCN4CCCC4)ccc3C2=O)c1"
cat = "condition met"

[[record]]
compound = "C=C1CCC2C3(C)COC(c4ccccc4)OC3CCC2(C)C1/C=C/C1=CCOC1=O (stereo not drawn)"
cat = "condition not met"

[[record]]
compound = "COc1ccc2cc(-c3ccc(-c4ccc(C(=N)N)cc4)s3)ccc2c1"
cat = "condition not met"

[[record]]
compound = "O=S(=O)(NCCNc1nccc(-c2c(-c3cccc(O)c3)nc3sccn23)n1)c1ccc(F)cc1"
cat = "condition met"

[[record]]
compound = "CC(C)(C)n1cc(-c2ccnc(NCCCNS(=O)(=O)c3ccc(F)cc3)c2)c(-c2cccc(O)c2)n1"
cat = "condition met"

[[record]]
compound = "OCCCCCCNc1ncnc2cc(Cl)ccc12"
cat = "condition not met"

